- Tested on: velvetleaf
- assay-details: Postemergent control of plant species
- Type: in vivo, Abutilon theophrasti
- condition-label: Abutilon theophrasti, post-emergence, 336 h, read-out: percent postemergent control
Please enter 1.0 where pest or weed control at 500 ppm is greater than or equal to 90%, and 0.0 where it is lower.

| compound | label |
| --- | --- |
| Cc1ccn2nc(S(=O)(=O)N(c3c(F)cccc3F)S(=O)(=O)c3ccccc3)nc2n1 [Compound 298] | 0.0 |
| COc1cccc(C=NO)c1NS(=O)(=O)c1nc2nc(C)cc(C)n2n1 [Compound 71] | 0.0 |
| COC(=O)c1cccc(C)c1N(C)S(=O)(=O)c1nc2nc(C)cc(C)n2n1 [Compound 261] | 1.0 |
| CCOc1cnc2nc(S(=O)(=O)Nc3ccccc3C(F)(F)F)nn2c1 [Compound 201] | 0.0 |
| C=CCN(c1c(Cl)cccc1Cl)S(=O)(=O)c1nc2nc(C)cc(C)n2n1 [Compound 263] | 0.0 |
| COC(=O)c1cccc(C)c1N(Cc1ccccc1)S(=O)(=O)c1nc2nc(C)cc(C)n2n1 [Compound 267] | 1.0 |
| Cc1cccc(Cl)c1NS(=O)(=O)c1nc2ncc(Cl)cn2n1 [Compound 119] | 0.0 |
| COC(=O)c1c(NS(=O)(=O)c2nc3nc(C)ccn3n2)c(C)nn1C [Compound 248] | 1.0 |
| Cc1cc(C)n2nc(S(=O)(=O)Nc3ccccc3F)nc2n1 [Compound 8] | 0.0 |
| Cc1cc(C)n2nc(S(=O)(=O)Nc3ccc(F)cc3Cl)nc2n1 [Compound 30] | 0.0 |
| Cc1ccn2nc(S(=O)(=O)Nc3c(C)nn(C)c3C(F)(F)F)nc2n1 [Compound 246] | 0.0 |
| Cc1cc(C)n2nc(S(=O)(=O)Nc3ccccc3Cl)nc2n1 [Compound 7] | 0.0 |
| Cc1cc(C)n2nc(S(=O)(=O)N(Cc3ccccc3)c3c(Cl)cccc3Cl)nc2n1 [Compound 265] | 0.0 |
| COC(=O)c1cccc(F)c1NS(=O)(=O)c1nc2nc(C)cc(C)n2n1 [Compound 26] | 1.0 |
| Cc1nc2nc(S(=O)(=O)Nc3ccccc3[N+](=O)[O-])nn2c2c1CCC2 [Compound 105] | 0.0 |
| CCOC(=O)CN(c1c(C)cccc1C(=O)OC)S(=O)(=O)c1nc2nc(C)cc(C)n2n1 [Compound 266] | 0.0 |

* * *

- System: soybean
- assay-details: Postemergent control of plant species
- Format: in vivo, Glycine max.
- condition-label: Glycine max, post-emergence, 336 h, read-out: percent postemergent control
plant injury at 500 ppm below 60% gives no; plant injury at 500 ppm at or above it gives yes.

| compound | test-target | label |
| --- | --- | --- |
| O=S(=O)(Nc1c(F)cccc1F)c1nc2ncc(Cl)cn2n1 [Compound 117] | soybean | no |
| CSc1cccc(Cl)c1NS(=O)(=O)c1nc2nc(C)cc(C)n2n1 [Compound 69] | soybean | no |
| Cc1ccn2nc(S(=O)(=O)Nc3c(F)c(F)cc(F)c3F)nc2n1 [Compound 163] | soybean | no |
| Cc1nc2nc(S(=O)(=O)Nc3ccccc3[N+](=O)[O-])nn2c2c1CCC2 [Compound 105] | soybean | yes |
| Cc1cc(C)n2nc(S(=O)(=O)Nc3cccc(Cl)c3)nc2n1 [Compound 17] | soybean | no |
| Cc1cc(C)n2nc(S(=O)(=O)Nc3c(Cl)ccc4ccccc34)nc2n1 [Compound 243] | soybean | yes |
| Cc1cc(C)n2nc(S(=O)(=O)N(C)c3c(Cl)cccc3Cl)nc2n1 [Compound 260] | soybean | yes |
| Cc1cccc(Cl)c1NS(=O)(=O)c1nc2ncc(Cl)cn2n1 [Compound 119] | soybean | no |
| Cc1cc(C)n2nc(S(=O)(=O)Nc3ccccc3[N+](=O)[O-])nc2n1 [Compound 12] | soybean | yes |
| COC(=O)c1ccccc1NS(=O)(=O)c1nc2nc(C)cc(C)n2n1 [Compound 10] | soybean | no |
| CC(=O)N(c1c(Cl)cccc1Cl)S(=O)(=O)c1nc2nc(C)cc(C)n2n1 [Compound 262] | soybean | yes |
| Cc1cc(C)n2nc(S(=O)(=O)Nc3c(Cl)cccc3CO)nc2n1 [Compound 93] | soybean | yes |
| Cc1cc(C)n2nc(S(=O)(=O)Nc3c(C)cccc3C)nc2n1 [Compound 32] | soybean | no |
| Cc1nc2nc(S(=O)(=O)Nc3ccccc3C(F)(F)F)nn2c2c1CCC2 [Compound 106] | soybean | yes |
| Cc1cc(C)n2nc(S(=O)(=O)Nc3c(F)c(F)cc(F)c3F)nc2n1 [Compound 90] | soybean | no |
| COc1ccc(Cl)c(NS(=O)(=O)c2nc3nc(C)ccn3n2)c1Cl [Compound 170] | soybean | no |
| Cc1cc(C)n2nc(S(=O)(=O)Nc3ccc(F)cc3Cl)nc2n1 [Compound 30] | soybean | no |
| COC(=O)c1ccc(Cl)c(NS(=O)(=O)c2nc3nc(C)cc(C)n3n2)c1Cl [Compound 82] | soybean | yes |
| COc1cccc(C=NO)c1NS(=O)(=O)c1nc2nc(C)cc(C)n2n1 [Compound 71] | soybean | no |
| Cc1ccn2nc(S(=O)(=O)Nc3c(C)nn(C)c3C(F)(F)F)nc2n1 [Compound 246] | soybean | yes |
| COc1ccccc1NS(=O)(=O)c1nc2nc(C)cc(C)n2n1 [Compound 4] | soybean | no |
| O=S(=O)(Nc1ccccc1C(F)(F)F)c1nc2ncc(Cl)cn2n1 [Compound 118] | soybean | no |
| Cc1cc(C)n2nc(S(=O)(=O)Nc3ccccc3Cl)nc2n1 [Compound 7] | soybean | no |
| Cc1ccc(NS(=O)(=O)c2nc3nc(C)cc(C)n3n2)c(Cl)c1 [Compound 48] | soybean | no |
| Cc1cc(C)n2nc(S(=O)(=O)Nc3ccc(Cl)cc3C(F)(F)F)nc2n1 [Compound 34] | soybean | yes |
| Cc1ccn2nc(S(=O)(=O)N(c3c(F)cccc3F)S(=O)(=O)c3ccccc3)nc2n1 [Compound 298] | soybean | no |
| Cc1ccnc2nc(S(=O)(=O)Nc3c(Cl)cccc3Cl)nn12 [Compound 180] | soybean | yes |
| Cc1cc(C)n2nc(S(=O)(=O)Nc3ccccc3)nc2n1 [Compound 1] | soybean | no |
| Cc1cc(C)n2nc(S(=O)(=O)Nc3c(C)nn(C)c3C(F)(F)F)nc2n1 [Compound 247] | soybean | yes |
| COC(=O)c1c(NS(=O)(=O)c2nc3nc(C)ccn3n2)c(C)nn1C [Compound 248] | soybean | no |
| COC(=O)c1cccc(F)c1NS(=O)(=O)c1nc2nc(C)cc(C)n2n1 [Compound 26] | soybean | yes |
| Cc1cc(C)n2nc(S(=O)(=O)Nc3c(Cl)cc(Cl)cc3Cl)nc2n1 [Compound 35] | soybean | yes |
| O=S(=O)(Nc1ccccc1C(F)(F)F)c1nc2ncccn2n1 [Compound 136] | soybean | no |
| COC(=O)c1cccc(C)c1N(Cc1ccccc1)S(=O)(=O)c1nc2nc(C)cc(C)n2n1 [Compound 267] | soybean | no |
| Cc1cc(C)n2nc(S(=O)(=O)Nc3ccccc3I)nc2n1 [Compound 6] | soybean | yes |

* * *

- Tested on: soybean
- assay-details: Postemergent control of plant species
- Type: in vivo, Glycine max.
- condition-label: Glycine max, post-emergence, 336 h, read-out: percent postemergent control
Returns: string. Value is Fulfilled if measured plant injury at 500 ppm is below 50%, and Not fulfilled if it is greater than or equal to it.

| compound | test-target | label |
| --- | --- | --- |
| CCOc1cnc2nc(S(=O)(=O)Nc3ccccc3C(F)(F)F)nn2c1 [Compound 201] | soybean | Fulfilled |
| CCc1cccc(CC)c1NS(=O)(=O)c1nc2nc(C)cc(C)n2n1 [Compound 33] | soybean | Fulfilled |
| Cc1cc(C)n2nc(S(=O)(=O)Nc3ccccc3F)nc2n1 [Compound 8] | soybean | Not fulfilled |
| Cc1cc(C)n2nc(S(=O)(=O)Nc3c(C)ccc(Cl)c3Cl)nc2n1 [Compound 74] | soybean | Not fulfilled |
| Cc1ccn2nc(S(=O)(=O)N(C(=O)N(C)C)c3c(Cl)cccc3Cl)nc2n1 [Compound 273] | soybean | Fulfilled |
| Cc1cc(C)n2nc(S(=O)(=O)N(Cc3ccccc3)c3c(Cl)cccc3Cl)nc2n1 [Compound 265] | soybean | Fulfilled |
| CCOC(=O)CN(c1c(C)cccc1C(=O)OC)S(=O)(=O)c1nc2nc(C)cc(C)n2n1 [Compound 266] | soybean | Not fulfilled |
| Cc1ccn2nc(S(=O)(=O)Nc3c(Cl)ccc4ccccc34)nc2n1 [Compound 244] | soybean | Fulfilled |
| C=CCN(c1c(Cl)cccc1Cl)S(=O)(=O)c1nc2nc(C)cc(C)n2n1 [Compound 263] | soybean | Fulfilled |
| COC(=O)c1cccc(C)c1N(C)S(=O)(=O)c1nc2nc(C)cc(C)n2n1 [Compound 261] | soybean | Not fulfilled |
